biological target: T1, human Aβ peptide (1-40) biotinylated at the C terminus (human, UniProt P05067 672-711, biotinylated at the C-terminus); assay: SPR Biacore 3000, Method A(i): C-terminally biotinylated β-amyloid 1-40 on streptavidin chip, antibody as analyte; Average(SD) of two runs
T1 construct: domain: β-amyloid peptide (1-40); Numbers 1-40 count on the β-amyloid peptide, not on APP; also called beta-amyloid 1-40 peptide (biotinylated at the C-terminus); streptavidin-captured beta-amyloid (1-40)
T1 sequence (P05067 672-711 limits assumed): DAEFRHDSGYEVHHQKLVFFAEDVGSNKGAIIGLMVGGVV
READOUT_NAME: Kd (nM)
Could you give me the number in nM? Just the number is fine.

Req: Looking for the measured Kd of Humanised 2E7 variant H3L1 (antibody, human IgG1, kappa, V domains shown, Human IgG1 with L235A and G237A, human kappa; also called L1+H3) VH: EVQLVESGGGLVQPGGSLRLSCAASGFTFSDNGMAWVRQAPGKGLEWISFISNLAYSIDYADTVTGRFTISRDNAKNSLYLQMNSLRAEDTAVYYCVSGTWFAYWGQGTLVTVSS VL: DIVMTQSPLSLPVTPGEPASISCRVSQSLLHSNGYTYLHWYLQKPGQSPQLLIYKVSNRFSGVPDRFSGSGSGTDFTLKISRVEAEDVGVYYCSQTRHVPYTFGGGTKVEIKR , can you help?
Resp: 0.0666

Req: Let us now turn to Mouse monoclonal antibody 2E7 (antibody, mouse IgG2a, V domains shown, Murine IgG2a heavy chain, murine kappa light chain; also called 2E7 MAb; parental mouse 2E7 MAb) VH: EVKLVESGGGLVQPGGSLKLSCAVSGFTFSDNGMAWVRQAPRKGPEWIAFISNLAYSIDYADTVTGRFTISRDNAKNTLYLEMSSLRSEDTAMYYCVSGTWFAYWGQGTLVTVSA VL: DVVLTQTPLSLPVSLGDQASISCRVSQSLLHSNGYTYLHWYLQKPGQSPKLLIYKVSNRFSGVPDRFSGSGSGTDFTLKISRVEAEDLGVYFCSQTRHVPYTFGGGTKLEIK
Resp: 0.0361

Req: Let us now turn to Chimeric 2E7 antibody (2E7c) (antibody, human IgG1, V domains shown, Parent murine V regions on human IgG1 (L235A, G237A) and human C kappa; also called 2E7c Chimera; not shown: human IgG1 heavy chain constant region, Fc mutated (L235A, G237A); human C kappa constant region) VH: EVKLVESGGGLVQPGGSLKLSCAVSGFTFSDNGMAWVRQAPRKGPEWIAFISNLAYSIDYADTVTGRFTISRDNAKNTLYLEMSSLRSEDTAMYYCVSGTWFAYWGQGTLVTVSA VL: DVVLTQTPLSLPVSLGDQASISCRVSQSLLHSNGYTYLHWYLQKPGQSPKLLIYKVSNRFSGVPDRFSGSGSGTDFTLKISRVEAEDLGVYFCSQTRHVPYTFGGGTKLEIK
Resp: 0.0458

Req: Let us now turn to Humanised 2E7 variant H2L1 (antibody, human IgG1, kappa, V domains shown, Human IgG1 with L235A and G237A, human kappa; also called L1+H2; H2L1 whole IgG) VH: EVQLVESGGGLVQPGGSLRLSCAVSGFTFSDNGMAWVRQAPGKGLEWVSFISNLAYSIDYADTVTGRFTISRDNAKNSLYLQMNSLRAEDTAVYYCVSGTWFAYWGQGTLVTVSS VL: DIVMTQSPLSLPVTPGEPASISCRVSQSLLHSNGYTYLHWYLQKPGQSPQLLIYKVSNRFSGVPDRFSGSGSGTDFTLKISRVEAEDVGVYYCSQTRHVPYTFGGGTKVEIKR
Resp: 0.054

Req: Let us now turn to Humanised 2E7 variant H1L1 (antibody, human IgG1, kappa, V domains shown, Human IgG1 with L235A and G237A, human kappa; also called L1+H1) VH: EVQLVESGGGLVQPGGSLRLSCAASGFTFSDNGMAWVRQAPGKGLEWVSFISNLAYSIDYADTVTGRFTISRDNAKNSLYLQMNSLRAEDTAVYYCVSGTWFAYWGQGTLVTVSS VL: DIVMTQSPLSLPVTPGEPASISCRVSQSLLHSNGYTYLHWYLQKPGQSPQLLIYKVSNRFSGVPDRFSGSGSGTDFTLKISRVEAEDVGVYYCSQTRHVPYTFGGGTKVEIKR
Resp: 0.0936
